tested target: human ORL1 (Homo sapiens)
Construct: expressed in transfected cells; host or cells: CHO cells (G418-selected)
Sequence (P41146 whole entry): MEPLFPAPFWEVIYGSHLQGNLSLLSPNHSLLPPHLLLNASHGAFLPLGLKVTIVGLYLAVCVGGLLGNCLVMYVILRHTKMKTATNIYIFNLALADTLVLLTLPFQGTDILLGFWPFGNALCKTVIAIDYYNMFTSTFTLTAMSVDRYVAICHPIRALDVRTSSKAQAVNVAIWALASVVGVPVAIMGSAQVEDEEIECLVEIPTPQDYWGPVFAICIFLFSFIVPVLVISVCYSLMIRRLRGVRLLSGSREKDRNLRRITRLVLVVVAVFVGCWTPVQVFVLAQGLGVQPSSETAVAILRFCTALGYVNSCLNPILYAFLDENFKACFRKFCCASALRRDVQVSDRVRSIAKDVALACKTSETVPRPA
method: Stimulation of [35S]GTPγS binding in membranes of CHO cells transfected with human ORL-1; note: test concentration or dose not given here
Assay type: biochemical
stated conditions: Table 1; relative to nociceptin
Peptide text beside a SMILES is read from it. * marks the point of attachment. Heptanoyl = CCCCCCC(=O)*; Hexanoyl = CCCCCC(=O)*; Propionyl = CCC(=O)*; Butyryl = CCCC(=O)*
measured quantity: [35S]GTPγS Binding Percent Stimulation (%)
Give bare numbers, in %.

Please review the entries below; each comes with its answer.
• CCCCCC(=O)N[C@@H](CCCNC(=N)N)C(=O)N[C@@H](Cc1ccc(O)cc1)C(=O)N[C@@H](Cc1ccc(O)cc1)C(=O)N[C@@H](CCCNC(=N)N)C(=O)N[C@@H](Cc1c[nH]c2ccccc12)C(=O)N[C@@H](CCCNC(=N)N)C(N)=O [IV-17-C, Hexanoyl-RYYRWR-NH2] (Hexanoyl-RYYRWR-NH2) = 18
• CCCCCCC(=O)N[C@@H](CCCNC(=N)N)C(=O)N[C@@H](Cc1ccc(O)cc1)C(=O)N[C@@H](Cc1ccc(O)cc1)C(=O)N[C@@H](CCCNC(=N)N)C(=O)N[C@@H](Cc1c[nH]c2ccccc12)C(=O)N[C@@H](CCCNC(=N)N)C(N)=O [IV-18-C, Heptanoyl-RYYRWR-NH2] (Heptanoyl-RYYRWR-NH2) = 54
• CCC(=O)N[C@@H](CCCNC(=N)N)C(=O)N[C@@H](Cc1ccc(O)cc1)C(=O)N[C@@H](Cc1ccc(O)cc1)C(=O)N[C@@H](CCCNC(=N)N)C(=O)N[C@@H](Cc1c[nH]c2ccccc12)C(=O)N[C@@H](CCCNC(=N)N)C(N)=O [IV-16-C, Propionyl-RYYRWR-NH2] (Propionyl-RYYRWR-NH2) = 82

Let's switch to this compound now.
Which [35S]GTPγS Binding Percent Stimulation value is on record for CCCC(=O)N[C@@H](CCCNC(=N)N)C(=O)N[C@@H](Cc1ccc(O)cc1)C(=O)N[C@@H](Cc1ccc(O)cc1)C(=O)N[C@@H](CCCNC(=N)N)C(=O)N[C@@H](Cc1c[nH]c2ccccc12)C(=O)N[C@@H](CCCNC(=N)N)C(N)=O [IV-15-A, Butryl-RYYRWR-NH2] (Butyryl-RYYRWR-NH2) ?
63

###

tested target: human ORL1 (Homo sapiens)
Construct: expressed in transfected cells; host or cells: CHO cells (G418-selected)
method: [3H]nociceptin binding to membranes of CHO cells transfected with human ORL1
stated conditions: Table 5
Numbered stars: 1 amine (or outer) side, 2 acyl side, 3 side chain; on linkers, the order of the positions; unused ones are H or OH. Square brackets hold non-standard residues; d marks the D form. Peptide text beside a SMILES is read from it. ξ: configuration not given here. Phe(4-F) = N[C@@H](Cc1ccc(F)cc1)C(=O)O; ξNip = O=C(C1CCCN([*:1])C1)[*:2]; Dab = NCC[C@H](N)C(=O)O; Ahx = NCCCCCC(=O)O
measured quantity: Hill Coefficient

Please review the entries below; each comes with its answer.
- CC(=O)NCCCCCC(=O)N[C@@H](Cc1ccc(O)cc1)C(=O)N[C@@H](Cc1ccc(O)cc1)C(=O)N[C@@H](CCCNC(=N)N)C(=O)N[C@@H](Cc1c[nH]c2ccccc12)C(=O)N[C@@H](CCCNC(=N)N)C(N)=O [VII-53-B] (Ac-[Ahx]YYRWR-NH2): 0.86
- CC(=O)N[C@@H](CCN)C(=O)N[C@@H](Cc1ccc(O)cc1)C(=O)N[C@@H](Cc1ccc(O)cc1)C(=O)N[C@@H](CCCNC(=N)N)C(=O)N[C@@H](Cc1c[nH]c2ccccc12)C(=O)N[C@@H](CCCNC(=N)N)C(N)=O [VII-67-A, Ac-Dab-Tyr-Tyr-Arg-Trp-Arg-NH2] (Ac-[Dab]YYRWR-NH2): 1.07
- CC(=O)N[C@@H](CCCNC(=N)N)C(=O)N[C@@H](Cc1ccc(F)cc1)C(=O)N[C@@H](Cc1ccc(O)cc1)C(=O)N[C@@H](CCCNC(=N)N)C(=O)N[C@@H](Cc1c[nH]c2ccccc12)C(=O)N[C@@H](CCCNC(=N)N)C(N)=O [VII-31-B, Ac-Arg-Phe(4-F)-Tyr-Arg-Trp-Arg-NH2] (Ac-R[Phe(4-F)]YRWR-NH2): 0.81

Let's switch to this compound now.
Which Hill Coefficient value is on record for N=C(N)NCCC[C@H](NC(=O)[C@H](Cc1c[nH]c2ccccc12)NC(=O)[C@H](CCCNC(=N)N)NC(=O)[C@H](Cc1ccc(O)cc1)NC(=O)[C@H](Cc1ccc(O)cc1)NC(=O)[C@H](CCCNC(=N)N)NC(=O)C1CCCNC1)C(N)=O (stereo partly drawn) [VII-1-A, Nipacotyl-Arg-Tyr-Tyr-Arg-Trp-Arg-NH2] (ξNip-RYYRWR-NH2) ?
0.97

###

tested target: human ORL1 (Homo sapiens)
Construct: expressed in transfected cells; host or cells: CHO cells (G418-selected)
method: [3H]nociceptin binding to membranes of CHO cells transfected with human ORL1
stated conditions: Table 5
Numbered stars: 1 amine (or outer) side, 2 acyl side, 3 side chain; on linkers, the order of the positions; unused ones are H or OH. Square brackets hold non-standard residues; d marks the D form. Peptide text beside a SMILES is read from it. ξ: configuration not given here. hPhe = N[C@@H](CCc1ccccc1)C(=O)O; ξβ2hAla = CC(CN[*:1])C(=O)[*:2]; Ahx = NCCCCCC(=O)O
measured quantity: Hill Coefficient
Answers are plain numbers.

- CC(=O)N[C@@H](CCCNC(=N)N)C(=O)N[C@@H](Cc1ccc(O)cc1)C(=O)N[C@@H](Cc1ccc(O)cc1)C(=O)NCCCCCC(=O)N[C@@H](Cc1c[nH]c2ccccc12)C(=O)N[C@@H](CCCNC(=N)N)C(N)=O [VII-55-A] (Ac-RYY[Ahx]WR-NH2): 1.12

Items follow; give Hill Coefficient for each.
1. CC(CN)C(=O)N[C@@H](CCCNC(=N)N)C(=O)N[C@@H](Cc1ccc(O)cc1)C(=O)N[C@@H](Cc1ccc(O)cc1)C(=O)N[C@@H](CCCNC(=N)N)C(=O)N[C@@H](Cc1c[nH]c2ccccc12)C(=O)N[C@@H](CCCNC(=N)N)C(N)=O (stereo partly drawn) [VII-3-A] (ξβ2hAla-RYYRWR-NH2)
2. CC(=O)N[C@@H](CCCNC(=N)N)C(=O)N[C@@H](CCc1ccccc1)C(=O)N[C@@H](CCc1ccccc1)C(=O)N[C@@H](CCCNC(=N)N)C(=O)N[C@@H](Cc1c[nH]c2ccccc12)C(=O)N[C@@H](CCCNC(=N)N)C(N)=O [VII-49-B, Ac-Arg-hPhe-hPhe-Arg-Trp-Arg-NH2] (Ac-R[hPhe][hPhe]RWR-NH2)
3. COc1ccc(C[C@H](NC(=O)[C@H](CCCNC(=N)N)NC(C)=O)C(=O)N[C@@H](Cc2ccc(OC)cc2)C(=O)N[C@@H](CCCNC(=N)N)C(=O)N[C@@H](Cc2c[nH]c3ccccc23)C(=O)N[C@@H](CCCNC(=N)N)C(N)=O)cc1 [VII-37-B] (Ac-RY(Me)Y(Me)RWR-NH2)

[0.72, 0.94, 0.82]
